Each recorded value in this set is attributed to PubChem BioAssay (NCI).

This listing pairs molecules with measured growth inhibition.
# assay: NCI Yeast Anticancer Drug Screen. Data for the rad50 strain (AID 155);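 also: 0% = growth of vehicle-only cultures of the same strain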
# test settings: S. cerevisiae rad50 strain growth inhibition; at 11.0 µM; active compounds read high
This is part of a sample that, as a whole, favours compounds with a hit. Of some 79,000 tested, about 15% had one in any assay.
measured attribute: growth inhibition (%)

INSERT INTO assay_data (molecule, measured_attribute, unit_abbreviation, measured) VALUES
  ('CCOC(=O)c1cc(-c2ccc(Cl)cc2)c([N+](=O)[O-])n1C', 'growth inhibition', '%', 34),
  ('CC1OCC2OC(C)OC(C3C4=C(CC(C)(C)CC4=O)OC4=C3C(=O)CC(C)(C)C4)C2O1 (centres undefined)', 'growth inhibition', '%', 49),
  ('CN(C)c1ccc(C(C#N)=C(C#N)C#N)cc1', 'growth inhibition', '%', 6),
  ('N#Cc1ccc(C2NN=CC23C(=O)c2ccccc2OC3c2ccccc2)cc1 (centres undefined)', 'growth inhibition', '%', -6),
  ('CN=C(N)N/N=C/c1ccc2c(c1)Cc1ccccc1-2', 'growth inhibition', '%', -12),
  ('CC(C)C1=CCC2C(=C1)CCC1C(C)(C(=O)O)CCCC21C (centres undefined) (tested in a mixture with another compound)', 'growth inhibition', '%', 16),
  ('O=S(=O)(CCCl)c1ccccc1Cl', 'growth inhibition', '%', 65),
  ('CO[C@H]1C[C@](C)(O)Cc2cc3c(c(O)c21)C(=O)c1c(O)cc2c(c1C3=O)O[C@@H]1O[C@@]2(C)[C@H](O)[C@@H](N(C)C)[C@@H]1O', 'growth inhibition', '%', 17),
  ('O=[N+]([O-])c1cccc2nc3ccccc3c(NCCCN3CCOCC3)c12', 'growth inhibition', '%', 96),
  ('Cc1nc(-c2ccccc2)c(-c2ccccc2)s1', 'growth inhibition', '%', -19),
  ('Cc1ccc(NC(=O)/C(Cl)=C(\Cl)C(=O)O)cc1C', 'growth inhibition', '%', 38),
  ('c1ccc(-c2ccnc3c2ccc2c(-c4ccccc4)ccnc23)cc1', 'growth inhibition', '%', 67),
  ('O=C(NC(Nc1ccc(F)c(Cl)c1)(C(F)(F)F)C(F)(F)F)C(C(F)(F)F)C(F)(F)F', 'growth inhibition', '%', 44),
  ('COc1ccccc1N=NC(C(=O)c1ccccc1)C(=O)c1ccccc1', 'growth inhibition', '%', -16),
  ('COc1ccc(/C=C2\SC(=S)N(/C=C/c3nc4ccccc4[nH]c3=O)C2=O)cc1OC', 'growth inhibition', '%', 12),
  ('CCCCN(CCCC)CCSc1ccc(Cl)cc1', 'growth inhibition', '%', -15),
  ('O=C(CCCN1CCC2(CC1)CC(=O)N(N1CCCCCC1)C2=O)c1ccc(F)cc1', 'growth inhibition', '%', 33),
  ('CCCS(=O)(=O)Nc1ccc(Nc2c3ccccc3nc3ccccc23)c(OC)c1', 'growth inhibition', '%', 84),
  ('Cc1ccc(S(=O)(=O)Oc2cc(Cl)c(Cl)cc2Cl)cc1', 'growth inhibition', '%', 11),
  ('CC(C)(C)c1nc2c(o1)C(=O)c1ccccc1C2=O', 'growth inhibition', '%', 32),
  ('O=[N+]([O-])c1ccc2c(c1)C(N1CCN(CCO)CC1)Cc1ccc(F)cc1S2 (centres undefined)', 'growth inhibition', '%', 1),
  ('S=C(Nc1ccc(Cl)c(Cl)c1)SCc1ccc2c(c1)OCO2', 'growth inhibition', '%', 99),
  ('O=C1C(Nc2ccccc2)=C(Oc2ccccc2)C(=O)c2ccccc21', 'growth inhibition', '%', -5),
  ('CC(=O)OCc1ccc(O)c(C=O)c1', 'growth inhibition', '%', 10),
  ('O=C1C=CC(=C(c2ccccc2)c2ccccc2)c2ccccc21', 'growth inhibition', '%', -1),
  ('CC(=O)Nc1ccc(SC(C)=O)cc1', 'growth inhibition', '%', 7),
  ('S=C(N/N=C/c1ccccn1)Nc1ccc(Cl)cc1', 'growth inhibition', '%', -27),
  ('Cc1ccc(S(=O)(=O)NCCSS(=O)(=O)c2ccc(C)cc2)cc1', 'growth inhibition', '%', 17),
  ('Oc1ccc(NCn2c(=S)sc3ccccc32)cc1', 'growth inhibition', '%', 5),
  ('CCCCCCCCNC(=O)C1=C(C)NC(C)=C(C(=O)NCCCCCCCC)C1', 'growth inhibition', '%', -17),
  ('CCc1ncnc2cc(OCC3CO3)c(OC)cc12 (centres undefined)', 'growth inhibition', '%', 72),
  ('CCC(=O)c1cccc2ccccc12', 'growth inhibition', '%', 1),
  ('COC1C=COC2(C)Oc3c(C)c(O)c4c(c3C2=O)/C(=N/C2CCC(O)OC2C)C=C(NC(=O)/C(C)=C\C(=O)C2CC2C(O)C(C)C(O)C(C)C(OC(C)=O)C1C)C4=O (centres undefined)', 'growth inhibition', '%', -2),
  ('O=C(OCC=C1CCCC1)c1cc([N+](=O)[O-])cc([N+](=O)[O-])c1', 'growth inhibition', '%', 18),
  ('CC(C)C1=CC2=C[C@H](O)[C@H]3C(C)(C)CCC[C@]3(C)C2=C(O)C1=O', 'growth inhibition', '%', 98),
  ('FC(F)(F)c1cc(NC(=S)N2c3ccccc3-n3cccc3C2c2cccnc2)cc(C(F)(F)F)c1 (centres undefined)', 'growth inhibition', '%', 9),
  ('Nc1nc(-c2cccnc2)cc(-c2cc(-c3cccnc3)nc(N)n2)n1', 'growth inhibition', '%', 2),
  ('CCCCCCCCCC/C=C\C(=O)O', 'growth inhibition', '%', -5),
  ('Cc1ccc(CSC(N)=Nc2ccccc2)cc1C', 'growth inhibition', '%', 14),
  ('COc1ccc(/C=C/C(=O)C(C)(C)Br)cc1', 'growth inhibition', '%', 88),
  ('CC(=O)SCCC[Si](C)(C)CCCSC(C)=O', 'growth inhibition', '%', 5),
  ('CSC(=S)Nc1cccc(C)n1', 'growth inhibition', '%', -11),
  ('c1ccc2c(c1)Oc1cccc3cccc-2c13', 'growth inhibition', '%', 5),
  ('CCNc1nnc(CSc2nc(-c3ccccc3)c(-c3ccccc3)[nH]2)s1', 'growth inhibition', '%', -13);
